Origin of values: PubChem BioAssay AID1159580

- METHOD: chemical genetic growth profiling, strain panel (AID 1159580);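 also: tested at 20 µM; growth read once vehicle control cultures reached saturation at 30 °C; 1 = growth at the plate median or of vehicle wells; lower values mean less growth of the strain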
- CONDITIONS_USED: S. cerevisiae deletion strains, growth OD, locus YDR388W, stronger effect = lower value
About 2,000 (36%) of roughly 5,500 compounds were called active. Not shown: some 18% with an inconclusive outcome. Some of the results follow.
Each record here notes measured normalized growth.

>  <COMPOUND>
CN(C)CCCN1c2ccccc2Sc2ccc(C(F)(F)F)cc21

>  <normalized growth>
0.986

$$$$
>  <COMPOUND>
CCCN(CCC)S(=O)(=O)c1ccc(C(=O)O)cc1

>  <normalized growth>
1.01

$$$$
>  <COMPOUND>
CC(N=C(NC#N)Nc1ccncc1)C(C)(C)C (configuration not stated)

>  <normalized growth>
1.02

$$$$
>  <COMPOUND>
CC(C)=CC1C(C(=O)O)C1(C)C (configuration not stated)

>  <normalized growth>
0.98

$$$$
>  <COMPOUND>
COC(=O)c1c(OC)cc2c(c1C)Oc1c(Cl)c(O)c(Cl)c(C)c1C(=O)O2

>  <normalized growth>
0.947

$$$$
>  <COMPOUND>
CN(C)CCCN1c2ccccc2Sc2ccccc21

>  <normalized growth>
1.01

$$$$
>  <COMPOUND>
CC(=O)O[C@H]1CC[C@@]2(C)C(=CC(=O)C3C4CCC(C(C)CCCC(C)C)[C@@]4(C)CCC32)C1 (some centres not stated)

>  <normalized growth>
0.979

$$$$
>  <COMPOUND>
O=C(O)c1cccnc1

>  <normalized growth>
1

$$$$
>  <COMPOUND>
COC(=O)c1c(C)c2c(c(C)c1O)OC(=O)c1c(C)c(Cl)c(O)c(Cl)c1O2

>  <normalized growth>
0.984

$$$$
>  <COMPOUND>
Cc1c(C)c2c(c(C)c1O)CCC(C)(CCCC(C)CCCC(C)CCCC(C)C)O2 (configuration not stated)

>  <normalized growth>
0.976

$$$$
>  <COMPOUND>
COC(=O)c1c(OC)cc2c(c1C)Oc1c(Cl)c(OC(C)=O)c(Cl)c(C)c1C(=O)O2

>  <normalized growth>
1.01

$$$$
>  <COMPOUND>
CCN1CCN(C(=O)NC(C(=O)N[C@@H]2C(=O)N3[C@@H]2SC(C)(C)[C@@H]3C(=O)O)c2ccccc2)C(=O)C1=O (some centres not stated)

>  <normalized growth>
1.01

$$$$
>  <COMPOUND>
CC(C)=CCc1c2c(c3occ(-c4ccc(O)cc4)c(=O)c3c1O)C=CC(C)(C)O2

>  <normalized growth>
0.917

$$$$
>  <COMPOUND>
O=C1NC(O)=NC1(c1ccccc1)c1ccccc1

>  <normalized growth>
1.02

$$$$
>  <COMPOUND>
Cc1ccc2c(c1)C1(C)CCCC(C)(C(=O)O)C1CC2 (configuration not stated)

>  <normalized growth>
1.01

$$$$
>  <COMPOUND>
CC(C)c1ccc2c(c1)CCC1C(C)(C(N)=O)CCCC21C (configuration not stated)

>  <normalized growth>
0.972

$$$$
>  <COMPOUND>
COC(=O)/C(=C1\OC(=O)C(c2ccccc2)=C1O)c1ccccc1

>  <normalized growth>
0.993

$$$$
>  <COMPOUND>
COc1c(C)c2c(c(C)c1Cl)Oc1c(Cl)c(OC)c(Cl)c(C)c1C(=O)O2

>  <normalized growth>
1.01

$$$$
>  <COMPOUND>
CC(=O)Oc1c(Cl)c(C)c2c(c1Cl)OC(=O)c1c(C)c(Cl)c(OC(C)=O)c(Cl)c1O2

>  <normalized growth>
0.932

$$$$
>  <COMPOUND>
CCOC(=O)NNc1nncc2ccccc12

>  <normalized growth>
0.973

$$$$
>  <COMPOUND>
O=C(NCO)c1cccnc1

>  <normalized growth>
0.989

$$$$
>  <COMPOUND>
CC(C)CCCC(C)[C@H]1CCC2C3CC=C4C[C@@H](O)CC[C@]4(C)C3CC[C@@]21C (some centres not stated)

>  <normalized growth>
0.988

$$$$
